This listing pairs compounds with measured TGI.
# Test system: SK-MEL-5 melanoma
# PROTOCOL: NCI tumour cell line growth inhibition, 48 h
Write it as a number; the unit µM goes unstated.

Would you please look over these solved cases?
>>> numeric_readout("CN(C)c1ccc(/C=c2/c3cc([N+](=O)[O-])ccc3n3c2cc(-c2ccccc2)[n+]3C)cc1")
1.11
>>> numeric_readout("O=C1OC(=O)C2C1C(c1ccccc1[N+](=O)[O-])C=C(c1ccco1)N2c1ccncc1 (stereo not given)")
19.7
>>> numeric_readout("Oc1ccc(Cl)cc1-c1cc(-c2ccc(F)cc2)n[nH]1")
5.55
>>> numeric_readout("COc1ccc(C2=NOP(c3ccccc3)(c3ccccc3)(c3ccccc3)C2)cc1")
28.8
>>> numeric_readout("O=[As]c1ccc(C(=O)c2ccc(Oc3ccccc3)cc2)cc1 (stereo not given)")
0.174
>>> numeric_readout("COc1cc(C=O)cc(C=Nc2ccc(S(N)(=O)=O)cc2)c1O")
23

Qu. I'd like to know its TGI. The compound in question is OC(COc1cccc2ccccc12)CN1CCN(c2ccccc2Cl)CC1 (stereo not given)
Ans. 28.9

Qu. Which measured TGI value corresponds to `Cn1ncc(-c2ccc3c(=O)[nH]nc(CN)c3c2)c1-c1c(F)cc2ccccc2c1C#N` ?
Ans. 22.9
